Origin of measurements: the NIST ThermoML archive (doi:10.1021/je500918t)

Assay: Molar enthalpy of transition or fusion
Conditions: Crystal; DSC
outcome measure: Molar enthalpy of transition or fusion (kcal/mol)

Recorded Molar enthalpy of transition or fusion, per entry:
[[record]]
compound = "COc1ccc(NS(=O)(=O)c2ccc(N)cc2)cc1 [4-amino-N-(4-methoxyphenyl)benzenesulfonamide]"
outcome_measure = "Molar enthalpy of transition or fusion"
units_text = "kcal/mol"
numeric_readout = 9.23

[[record]]
compound = "O=[N+]([O-])c1ccccc1NS(=O)(=O)c1ccccc1 [N-(2-nitrophenyl)benzenesulfonamide]"
outcome_measure = "Molar enthalpy of transition or fusion"
units_text = "kcal/mol"
numeric_readout = 5.33

[[record]]
compound = "O=S(=O)(Nc1cccc(Cl)c1Cl)c1ccccc1 [N-(2,3-dichlorophenyl)benzenesulfonamide]"
outcome_measure = "Molar enthalpy of transition or fusion"
units_text = "kcal/mol"
numeric_readout = 6.5

[[record]]
compound = "CCc1ccc(NS(=O)(=O)c2ccc(N)cc2)cc1 [4-amino-N-(4-ethylphenyl)benzenesulfonamide]"
outcome_measure = "Molar enthalpy of transition or fusion"
units_text = "kcal/mol"
numeric_readout = 8.68

[[record]]
compound = "O=[N+]([O-])c1ccc(S(=O)(=O)Nc2nccs2)cc1 [4-nitro-N-2-thiazolylbenzenesulfonamide]"
outcome_measure = "Molar enthalpy of transition or fusion"
units_text = "kcal/mol"
numeric_readout = 7.6


1. Cc1cc(N)ccc1S(=O)(=O)Nc1ccc(Cl)cc1 [4-amino-N-(4-chlorophenyl)-2-methylbenzenesulfonamide]
2. Nc1ccc(S(=O)(=O)Nc2ccccc2Cl)c(Cl)c1 [4-amino-2-chloro-N-(2-chlorophenyl)benzenesulfonamide]
Enquiry: Between item 1 and item 2 , which reported Molar enthalpy of transition or fusion is smaller? State the label of the item chosen.
Return: 1

---

Experiment: Molar enthalpy of transition or fusion
Settings: Crystal; DSC
outcome measure: Molar enthalpy of transition or fusion (kcal/mol)

Recorded Molar enthalpy of transition or fusion, per entry:
[[record]]
molecule = "Nc1ccc(S(=O)(=O)Nc2cc(Cl)c(Cl)cc2Cl)cc1 [4-amino-N-(2,4,5-trichlorophenyl)benzenesulfonamide]"
units_text = "kcal/mol"
numeric_readout = 9.49

[[record]]
molecule = "Cc1cc(N)ccc1S(=O)(=O)Nc1ccccc1[N+](=O)[O-] [4-amino-2-methyl-N-(2-nitrophenyl)benzenesulfonamide]"
units_text = "kcal/mol"
numeric_readout = 9.56

[[record]]
molecule = "Cc1ccc(NS(=O)(=O)c2ccc(N)cc2)cc1Cl [4-amino-N-(3-chloro-4-methylphenyl)benzenesulfonamide]"
units_text = "kcal/mol"
numeric_readout = 10.9

[[record]]
molecule = "Cc1cc(Cl)ccc1NS(=O)(=O)c1ccc(N)cc1 [4-amino-N-(4-chloro-2-methylphenyl)benzenesulfonamide]"
units_text = "kcal/mol"
numeric_readout = 8.8

[[record]]
molecule = "Cc1cc(N)ccc1S(=O)(=O)Nc1ccccc1Cl [4-amino-N-(2-chlorophenyl)-2-methylbenzenesulfonamide]"
units_text = "kcal/mol"
numeric_readout = 11.3


1. Nc1ccc(S(=O)(=O)Nc2ccc(Cl)cc2)c(Cl)c1 [4-amino-2-chloro-N-(4-chlorophenyl)benzenesulfonamide]
2. CNS(=O)(=O)c1ccc(N)cc1 [4-amino-N-methylbenzenesulfonamide]
Enquiry: Between item 1 and item 2 , which reported Molar enthalpy of transition or fusion is smaller? State the label of the item chosen.
Return: 2

---

Conditions: Crystal; DTA
outcome measure: Normal melting temperature (°C)

[[record]]
molecule = "Cc1ccc(NS(=O)(=O)c2ccc(N)cc2)cc1Cl [4-amino-N-(3-chloro-4-methylphenyl)benzenesulfonamide]"
numeric_readout = 204.5

[[record]]
molecule = "Cc1cc(Cl)ccc1NS(=O)(=O)c1ccc(N)cc1 [4-amino-N-(4-chloro-2-methylphenyl)benzenesulfonamide]"
numeric_readout = 149.6

[[record]]
molecule = "Nc1ccc(S(=O)(=O)Nc2ccc(Cl)cc2)c(Cl)c1 [4-amino-2-chloro-N-(4-chlorophenyl)benzenesulfonamide]"
numeric_readout = 195.6


1. O=S(=O)(Nc1cccc(Cl)c1Cl)c1ccccc1 [N-(2,3-dichlorophenyl)benzenesulfonamide]
2. Nc1ccc(S(=O)(=O)Nc2cccc(Cl)c2Cl)cc1 [4-amino-N-(2,3-dichlorophenyl)benzenesulfonamide]
Enquiry: Sorting by Normal melting temperature in descending order, would 1 or 2 appear first? State the label of the item chosen.
Return: 2

I. O=S(=O)(Nc1ccccc1Cl)c1ccccc1 [N-(2-chlorophenyl)benzenesulfonamide]
II. Nc1ccc(S(=O)(=O)Nc2ccc(Cl)cc2)cc1 [4-amino-N-(4-chlorophenyl)benzenesulfonamide]
Enquiry: Between item I and item II , which reported Normal melting temperature is smaller? State the label of the item chosen.
Return: I

A. Nc1ccc(S(=O)(=O)Nc2ccccc2Cl)c(Cl)c1 [4-amino-2-chloro-N-(2-chlorophenyl)benzenesulfonamide]
B. Cc1ccc(Cl)cc1NS(=O)(=O)c1ccc(N)cc1 [4-amino-N-(5-chloro-2-methylphenyl)benzenesulfonamide]
Enquiry: Between item A and item B , which reported Normal melting temperature is smaller? State the label of the item chosen.
Return: B
(B: 149.6 °C, A: 232 °C)

---

Test: Molar enthalpy of transition or fusion
Details: Crystal; DSC
outcome measure: Molar enthalpy of transition or fusion (kcal/mol)

Recorded Molar enthalpy of transition or fusion, per entry:
[[record]]
compound = "Nc1ccc(S(=O)(=O)Nc2cc(Cl)ccc2Cl)cc1 [4-amino-N-(2,5-dichlorophenyl)benzenesulfonamide]"
outcome_measure = "Molar enthalpy of transition or fusion"
numeric_readout = 9.87

[[record]]
compound = "O=S(=O)(Nc1ccccc1)c1ccccc1 [N-phenylbenzenesulfonamide]"
outcome_measure = "Molar enthalpy of transition or fusion"
numeric_readout = 5.62

[[record]]
compound = "Cc1ccc(NS(=O)(=O)c2ccc([N+](=O)[O-])cc2)nc1 [N-(5-methylpyridin-2-yl)-4-nitrobenzenesulfonamide]"
outcome_measure = "Molar enthalpy of transition or fusion"
numeric_readout = 10.9

[[record]]
compound = "Cc1ccc(Cl)cc1NS(=O)(=O)c1ccc(N)cc1 [4-amino-N-(5-chloro-2-methylphenyl)benzenesulfonamide]"
outcome_measure = "Molar enthalpy of transition or fusion"
numeric_readout = 8.8

[[record]]
compound = "CN(C)S(=O)(=O)c1ccc(N)cc1 [4-amino-N,N-dimethylbenzenesulfonamide]"
outcome_measure = "Molar enthalpy of transition or fusion"
numeric_readout = 7.1

[[record]]
compound = "Nc1ccc(S(=O)(=O)Nc2cccc(Cl)c2Cl)cc1 [4-amino-N-(2,3-dichlorophenyl)benzenesulfonamide]"
outcome_measure = "Molar enthalpy of transition or fusion"
numeric_readout = 9.78


a. O=S(=O)(Nc1ccc(Cl)cc1)c1ccccc1 [N-(4-chlorophenyl)benzenesulfonamide]
b. Nc1ccc(S(=O)(=O)Nc2ccc([N+](=O)[O-])cc2Br)cc1 [4-amino-N-(2-bromo-4-nitrophenyl)benzenesulfonamide]
Enquiry: Between item a and item b , which reported Molar enthalpy of transition or fusion is smaller? State the label of the item chosen.
Return: a

---

Settings: Crystal; DTA
outcome measure: Normal melting temperature (°C)

[[record]]
compound = "Nc1ccc(S(=O)(=O)Nc2cc(Cl)ccc2Cl)cc1 [4-amino-N-(2,5-dichlorophenyl)benzenesulfonamide]"
outcome_measure = "Normal melting temperature"
units_text = "°C"
numeric_readout = 172.8

[[record]]
compound = "Cc1ccc(NS(=O)(=O)c2ccc([N+](=O)[O-])cc2)nc1 [N-(5-methylpyridin-2-yl)-4-nitrobenzenesulfonamide]"
outcome_measure = "Normal melting temperature"
units_text = "°C"
numeric_readout = 161.0

[[record]]
compound = "CC(=O)Nc1ccncc1NS(=O)(=O)c1ccc([N+](=O)[O-])cc1 [N-[3-[[(4-nitrophenyl)sulfonyl]amino]-4-pyridinyl]-acetamide]"
outcome_measure = "Normal melting temperature"
units_text = "°C"
numeric_readout = 238.0

[[record]]
compound = "Nc1ccc(S(=O)(=O)N(c2ccccc2)c2ccccc2)cc1 [4-amino-N,N-diphenylbenzenesulfonamide]"
outcome_measure = "Normal melting temperature"
units_text = "°C"
numeric_readout = 179.5

[[record]]
compound = "CN(C)S(=O)(=O)c1ccc(N)cc1 [4-amino-N,N-dimethylbenzenesulfonamide]"
outcome_measure = "Normal melting temperature"
units_text = "°C"
numeric_readout = 171.5

[[record]]
compound = "Cc1cc(N)ccc1S(=O)(=O)Nc1ccccc1[N+](=O)[O-] [4-amino-2-methyl-N-(2-nitrophenyl)benzenesulfonamide]"
outcome_measure = "Normal melting temperature"
units_text = "°C"
numeric_readout = 178.2


---

Assay: Molar enthalpy of transition or fusion
Details: Crystal; DSC
outcome measure: Molar enthalpy of transition or fusion (kJ/mol)

[[record]]
molecule = "CC(=O)Nc1ccncc1NS(=O)(=O)c1ccc([N+](=O)[O-])cc1 [N-[3-[[(4-nitrophenyl)sulfonyl]amino]-4-pyridinyl]-acetamide]"
numeric_readout = 41.4

[[record]]
molecule = "Cc1ccc(NS(=O)(=O)c2ccc(N)cc2)c(Cl)c1 [4-amino-N-(2-chloro-4-methylphenyl)benzenesulfonamide]"
numeric_readout = 31.7

[[record]]
molecule = "O=S(=O)(Nc1ncccc1Cl)c1ccccc1 [N-(3-chloro-2-pyridinyl)benzenesulfonamide]"
numeric_readout = 28.1

[[record]]
molecule = "CCN(CC)S(=O)(=O)c1ccc(N)cc1 [4-amino-N,N-diethylbenzenesulfonamide]"
numeric_readout = 19.4

[[record]]
molecule = "Nc1ccc(S(=O)(=O)N(c2ccccc2)c2ccccc2)cc1 [4-amino-N,N-diphenylbenzenesulfonamide]"
numeric_readout = 35.1

[[record]]
molecule = "Nc1ccc(S(=O)(=O)Nc2ccc(Cl)cc2)cc1 [4-amino-N-(4-chlorophenyl)benzenesulfonamide]"
numeric_readout = 23.8


1. O=S(=O)(Nc1ccccc1Cl)c1ccccc1 [N-(2-chlorophenyl)benzenesulfonamide]
2. CCOC(=O)c1ccc(NS(=O)(=O)c2ccccc2)nc1 [ethyl 6-(phenylsulfonamido)nicotinate]
Enquiry: Between item 1 and item 2 , which reported Molar enthalpy of transition or fusion is smaller? State the label of the item chosen.
Return: 2
